# tested.on: NKAα4 (Rattus norvegicus)
# Construct: made in house; host or cells: Sf9 insect cells (baculovirus infection), cell homogenates
# Sequence (Q64541 whole entry, other chains not shown): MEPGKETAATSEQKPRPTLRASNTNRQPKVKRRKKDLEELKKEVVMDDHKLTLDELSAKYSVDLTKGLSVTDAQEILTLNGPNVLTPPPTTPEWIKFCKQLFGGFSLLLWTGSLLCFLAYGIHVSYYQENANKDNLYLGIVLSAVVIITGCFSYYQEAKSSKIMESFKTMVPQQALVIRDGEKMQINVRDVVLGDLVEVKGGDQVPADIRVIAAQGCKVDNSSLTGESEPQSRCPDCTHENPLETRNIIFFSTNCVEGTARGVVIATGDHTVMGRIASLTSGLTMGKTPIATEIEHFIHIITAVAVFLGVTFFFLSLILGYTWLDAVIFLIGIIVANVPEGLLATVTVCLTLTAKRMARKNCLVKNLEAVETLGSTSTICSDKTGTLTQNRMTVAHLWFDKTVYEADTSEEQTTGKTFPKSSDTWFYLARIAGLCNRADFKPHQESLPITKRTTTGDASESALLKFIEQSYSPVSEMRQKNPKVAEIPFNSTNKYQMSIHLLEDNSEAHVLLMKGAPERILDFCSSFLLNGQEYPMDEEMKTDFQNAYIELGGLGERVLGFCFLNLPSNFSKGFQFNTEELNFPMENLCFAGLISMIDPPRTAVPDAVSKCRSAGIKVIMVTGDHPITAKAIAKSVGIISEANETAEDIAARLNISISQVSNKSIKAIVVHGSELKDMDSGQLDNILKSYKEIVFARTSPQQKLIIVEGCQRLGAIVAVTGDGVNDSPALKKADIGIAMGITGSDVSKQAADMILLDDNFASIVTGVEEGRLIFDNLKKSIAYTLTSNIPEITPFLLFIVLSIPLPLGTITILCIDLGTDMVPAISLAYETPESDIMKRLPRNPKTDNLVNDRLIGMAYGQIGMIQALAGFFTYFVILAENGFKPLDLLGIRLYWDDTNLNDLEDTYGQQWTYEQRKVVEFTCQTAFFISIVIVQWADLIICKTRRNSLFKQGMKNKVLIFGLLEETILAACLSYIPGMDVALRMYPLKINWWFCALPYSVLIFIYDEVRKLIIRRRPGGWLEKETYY
# assay.procedure: Na,K-ATPase activity assay, α4β1 expressed in Sf9 insect cells
# Type: biochemical
# condition: α4β1 in Sf9 insect cells; ± SEM of three experiments; read-out: NKA Isoform Specificity (IC50 M) NKAα4
metric: pIC50
Reminder that pIC50 means the negative base-10 logarithm of the concentration expressed in mol/L.

Reported pIC50, molecule CC12CCC(=O)C=C1CCCC2n1cc(-c2ccccc2)nn1 (stereo not shown) : ____
8.57

###

# assay.procedure: Caco-2 cell permeability
# Format: in vitro ADME, human
# condition: human, Caco-2, Caco-2 cells; read-out: Papp (A-B)
metric: Papp A→B (×10⁻⁶ cm/s)
Answer in ×10⁻⁶ cm/s, number only, no unit symbol.

- C[C@H]1O[C@@H](O[C@H]2[C@@H](O)C[C@H](O[C@H]3[C@@H](O)C[C@H](O[C@H]4CC[C@@]5(C)[C@H](CC[C@@H]6[C@@H]5C[C@@H](O)[C@]5(C)[C@@H](C7=CC(=O)OC7)CC[C@]65O)C4)O[C@@H]3C)O[C@@H]2C)C[C@H](O)[C@@H]1O: 0.63
- CC(C)NCC(O)COc1cccc2ccccc12 (stereo not shown): 24.4
- CC12CCC(=O)C=C1CCCC2n1cc(-c2ccccc2)nn1 (stereo not shown): 24

Below: the item to evaluate.
Reported Papp A→B, molecule `COc1cc2nc(N3CCN(C(=O)c4ccco4)CC3)nc(N)c2cc1OC` : ____
7.59

###

# assay.procedure: In vivo pharmacokinetic study
# Parameters: species or system CD-1 mice
# condition: male, CD-1, mouse, plasma; CD1 mice, IV 10 mg/kg
metric: AUC(0-t) (ng·h/mL)
Answer in ng·h/mL, number only, no unit symbol.

Reported AUC(0-t), compound CC12CCC(=O)C=C1CCCC2n1cc(-c2ccccc2)nn1 (stereo not shown) : ____
559

###

# assay.procedure: MDCK cell permeability
# condition: dog, MDCK
metric: Papp B→A (×10⁻⁶ cm/s)
Answer in ×10⁻⁶ cm/s, number only, no unit symbol.

* C[C@]12CC[C@H]3[C@@H](CC=C4C[C@@H](O)CC[C@@]43C)[C@@H]1CC[C@@H]2c1cn(Cc2ccccc2)nn1 [Compound 13] | 0.78
* C[C@H]1O[C@@H](O[C@H]2[C@@H](O)C[C@H](O[C@H]3[C@@H](O)C[C@H](O[C@H]4CC[C@@]5(C)[C@H](CC[C@@H]6[C@@H]5C[C@@H](O)[C@]5(C)[C@@H](C7=CC(=O)OC7)CC[C@]65O)C4)O[C@@H]3C)O[C@@H]2C)C[C@H](O)[C@@H]1O [Digoxin] | 3.29

Below: the item to evaluate.
Reported Papp B→A, molecule COCCc1ccc(OCC(O)CNC(C)C)cc1 (stereo not drawn) [Metoprolol] : ____
17

###

# assay.procedure: Metabolic stability in mouse hepatocytes
# Format: in vitro ADME
# condition: mouse hepatocytes; read-out: Scale-up Clint
metric: CLint scaled at 1 µM (mL/min/kg)
Answer in mL/min/kg, number only, no unit symbol.

Reported CLint scaled at 1 µM, molecule CC12CCC(=O)C=C1CCCC2n1cc(-c2ccccc2)nn1 (stereo not shown) [Compound 45] : ____
911
